B1: Pistol ribozyme (parent)
chain: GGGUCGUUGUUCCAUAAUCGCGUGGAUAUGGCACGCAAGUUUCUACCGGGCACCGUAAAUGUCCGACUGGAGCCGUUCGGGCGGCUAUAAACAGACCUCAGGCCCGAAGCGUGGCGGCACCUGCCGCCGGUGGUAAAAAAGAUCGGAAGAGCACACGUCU

- Variants of: B1
- EXPERIMENTAL_PROTOCOL: aptazyme ON/OFF ratio, guanine; higher = stronger switching; co-transcriptional cleavage with and without guanine
QUANTITY_MEASURED: aptazyme ON/OFF ratio
Just the number, please, no unit after it.

Value lookup for aptazyme ON/OFF ratio; key = U8A G9U U10C U11C C12A
1.01

Value lookup for aptazyme ON/OFF ratio; key = U7G U8G G9C U10A U11A C12G C13U
1.02

Value lookup for aptazyme ON/OFF ratio; key = U7C U8C G9U U10G
1.42

Value lookup for aptazyme ON/OFF ratio; key = U8G G9A U10A U11C C12U C13G
1.23

Value lookup for aptazyme ON/OFF ratio; key = U8G G9U U10C U11C C12A C13G
1.1

Value lookup for aptazyme ON/OFF ratio; key = U8A G9A U10C U11C C12G
1.05

Value lookup for aptazyme ON/OFF ratio; key = U7G G9C U11G C12G
1.31

Value lookup for aptazyme ON/OFF ratio; key = U7G U8A G9C U10A U11A C12G
1.03

Value lookup for aptazyme ON/OFF ratio; key = U7G U8G U10G U11A C12U C13G
1.17

Value lookup for aptazyme ON/OFF ratio; key = U7A U8C G9A U10A U11C C12U C13A
1.12

Value lookup for aptazyme ON/OFF ratio; key = U7A G9A U11A C12U
1.54

Value lookup for aptazyme ON/OFF ratio; key = U8C G9A U10A U11G C12G C13A
1.16

Value lookup for aptazyme ON/OFF ratio; key = U7G U8A U11A C12G
1.22

Value lookup for aptazyme ON/OFF ratio; key = U7G U8G U10G C12G C13A
1.21

Value lookup for aptazyme ON/OFF ratio; key = U7A U8A G9A U10A U11C C13A
1.05

Value lookup for aptazyme ON/OFF ratio; key = U7C U8C U10G C12G C13A
1.11

Value lookup for aptazyme ON/OFF ratio; key = U8G G9U C12A C13A
1.41

Value lookup for aptazyme ON/OFF ratio; key = U7C G9A U10G C12G C13A
1.14

Value lookup for aptazyme ON/OFF ratio; key = U7A U8C U11A C12G C13A
1.06

Value lookup for aptazyme ON/OFF ratio; key = U8G G9U U11A C12A C13U
1.1

Value lookup for aptazyme ON/OFF ratio; key = U7A U8G G9U U11A C12A C13U
1.25

Value lookup for aptazyme ON/OFF ratio; key = U7A U8C G9U U10A U11C C12U C13G
1.12

Value lookup for aptazyme ON/OFF ratio; key = U8A G9A C12G C13U
1.18

Value lookup for aptazyme ON/OFF ratio; key = U7G U8C G9U U10C C12A
2.08

Value lookup for aptazyme ON/OFF ratio; key = U7A U8G U10G U11A C12G C13G
1.46

Value lookup for aptazyme ON/OFF ratio; key = U7G U8C G9U U10A U11G C12G
1.19

Value lookup for aptazyme ON/OFF ratio; key = U7C U8G G9U U11A C13A
1.28

Value lookup for aptazyme ON/OFF ratio; key = U7G U8C G9A U10G U11G C12U C13U
1.52

Value lookup for aptazyme ON/OFF ratio; key = G9A U11A C12U
1.83

Value lookup for aptazyme ON/OFF ratio; key = U8A G9U U10A U11A C12A
1.36

Value lookup for aptazyme ON/OFF ratio; key = U7A U8A U10C U11G C12A
1.09

Value lookup for aptazyme ON/OFF ratio; key = U8C G9A U10G U11A C12G C13A
1.19

Value lookup for aptazyme ON/OFF ratio; key = U7A U8C G9C U10A U11G C12G
1.12

Value lookup for aptazyme ON/OFF ratio; key = U7C U8A G9C U10G U11A C12G C13U
1.13

Value lookup for aptazyme ON/OFF ratio; key = U7A G9C U10G C12U C13A
1.06

Value lookup for aptazyme ON/OFF ratio; key = U8A U11A C12U
1.19

Value lookup for aptazyme ON/OFF ratio; key = U8G G9A U10G C12A
1.44

Value lookup for aptazyme ON/OFF ratio; key = U8C G9U U10C U11A C12U C13U
1.2

Value lookup for aptazyme ON/OFF ratio; key = U7A U8A U10G C12A C13A
1.21

Value lookup for aptazyme ON/OFF ratio; key = U10G U11G C13G
1.21

Value lookup for aptazyme ON/OFF ratio; key = U7C U8C G9A U10A U11C C12U C13A
1.15

Value lookup for aptazyme ON/OFF ratio; key = U7G U8A G9U U11C C12U C13A
1.1

Value lookup for aptazyme ON/OFF ratio; key = U8G G9U U10G C12U C13A
1.03

Value lookup for aptazyme ON/OFF ratio; key = U7C U8C G9C U10G U11A C12A C13A
1.16

Value lookup for aptazyme ON/OFF ratio; key = U7A U8C U10G U11G C12A C13U
1.34

Value lookup for aptazyme ON/OFF ratio; key = U7A U8A G9C U10A U11C C13G
1.05

Value lookup for aptazyme ON/OFF ratio; key = U8A U11C
1.12

Value lookup for aptazyme ON/OFF ratio; key = U7A U8A U10A C12G C13U
1.23

Value lookup for aptazyme ON/OFF ratio; key = U7A G9U U10G U11A C12A C13A
1.14

Value lookup for aptazyme ON/OFF ratio; key = U7G U8C U10G U11G C13U
1.3

Value lookup for aptazyme ON/OFF ratio; key = U7C U10A U11A C12G
1.28

Value lookup for aptazyme ON/OFF ratio; key = U7C U8C G9A U10A C12G
1.39

Value lookup for aptazyme ON/OFF ratio; key = U7G G9A U11A C13U
1.2

Value lookup for aptazyme ON/OFF ratio; key = U8A G9U U10C U11G C12U C13U
1.25

Value lookup for aptazyme ON/OFF ratio; key = U7C U8A G9C U10A U11C C12A C13G
1.14

Value lookup for aptazyme ON/OFF ratio; key = U7C U8A G9U U11G C12U C13A
1.22

Value lookup for aptazyme ON/OFF ratio; key = U7G U8G G9A U10G U11G C12G
1.3

Value lookup for aptazyme ON/OFF ratio; key = U7A U10A C12U
1.1

Value lookup for aptazyme ON/OFF ratio; key = U7A U8C G9A U10C U11A C12G C13U
1.09

Value lookup for aptazyme ON/OFF ratio; key = U8C G9C U11G C13G
1.19

Value lookup for aptazyme ON/OFF ratio; key = U7A G9U U10G C12A C13G
1.13

Value lookup for aptazyme ON/OFF ratio; key = U8C G9U U11C C12U C13G
1.04

Value lookup for aptazyme ON/OFF ratio; key = U7A G9C U11C C12G C13U
1.09

Value lookup for aptazyme ON/OFF ratio; key = G9C U10G U11G C12G C13G
1.13

Value lookup for aptazyme ON/OFF ratio; key = G9C U10A U11C C12G C13G
1.44

Value lookup for aptazyme ON/OFF ratio; key = U8G G9A U10G U11A
1.05

Value lookup for aptazyme ON/OFF ratio; key = U7C G9C U10C U11G C13U
1.19

Value lookup for aptazyme ON/OFF ratio; key = U7G U8C U10A U11G C12U C13A
1.22

Value lookup for aptazyme ON/OFF ratio; key = U7C U8A G9A U10C U11A C12A C13G
1.1

Value lookup for aptazyme ON/OFF ratio; key = U7A U8A G9A U10A U11A
1.15

Value lookup for aptazyme ON/OFF ratio; key = G9U U10G U11A C12U C13U
1.85

Value lookup for aptazyme ON/OFF ratio; key = U7C U8G G9A U10C U11C C13A
1.02

Value lookup for aptazyme ON/OFF ratio; key = U7C U8G U10A U11G C12A C13A
1.12

Value lookup for aptazyme ON/OFF ratio; key = U7C U8A G9U U10G C13A
1.41

Value lookup for aptazyme ON/OFF ratio; key = U7C U8G G9A U10C U11G C12G
1.22

Value lookup for aptazyme ON/OFF ratio; key = U8A U11G C13G
1.04

Value lookup for aptazyme ON/OFF ratio; key = U7C U8G G9C C12A C13G
1.09

Value lookup for aptazyme ON/OFF ratio; key = U7C U8A G9C U10G U11G C12A C13U
1.06

Value lookup for aptazyme ON/OFF ratio; key = U7G U8C G9U U10A U11G C12U C13G
1.11

Value lookup for aptazyme ON/OFF ratio; key = U8C U10A U11C
1.02

Value lookup for aptazyme ON/OFF ratio; key = U8G G9U U10A C12A
1.43

Value lookup for aptazyme ON/OFF ratio; key = U7A U8G G9C U11G C12A
1.67

Value lookup for aptazyme ON/OFF ratio; key = U7C G9A C12A C13G
1.11
